Value source: patent US20160145247A1

- Measured on: factor D (Homo sapiens, UniProt P00746)
- Construct: made in house; host or cells: E. coli
- Sequence (P00746 26-253): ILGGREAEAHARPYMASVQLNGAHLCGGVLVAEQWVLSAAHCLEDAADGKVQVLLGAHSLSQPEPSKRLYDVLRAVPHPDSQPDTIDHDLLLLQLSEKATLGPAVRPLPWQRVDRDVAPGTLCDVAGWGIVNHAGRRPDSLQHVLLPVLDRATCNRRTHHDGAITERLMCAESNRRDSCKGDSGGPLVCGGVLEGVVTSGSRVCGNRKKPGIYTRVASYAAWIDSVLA
- Protocol: factor D inhibition assay of Biological Example 2
- Assay type: biochemical
Lab note: compare IC50 with 100 nM, writing criterion met if less and criterion not met if equal or more.

Example entries begin here.
# TODO verify IC50 < 100 nM strictly for this compound: C[C@@H](N)c1cc(-c2cccc(COc3ccccc3CC(=O)O)c2)ccn1
criterion not met

# TODO verify IC50 < 100 nM strictly for this compound: NCc1cccc(-c2ccnc(COc3ccccc3CC(=O)O)c2)c1
criterion met

New cases:
# TODO verify IC50 < 100 nM strictly for this compound: C[C@@H](N)c1cccc(-c2cc(COc3ccccc3CC(=O)O)cc(OCc3ccn(C)n3)c2)c1F
criterion met

# TODO verify IC50 < 100 nM strictly for this compound: C[C@@H](N)c1cccc(-c2cc(COCC(F)(F)F)cc(COc3ccccc3CC(=O)O)c2)c1F
criterion met
